# ASSAY SYSTEM: Estrogen receptor beta (Homo sapiens) (UniProt Q92731)
# Sequence (Q92731 whole entry): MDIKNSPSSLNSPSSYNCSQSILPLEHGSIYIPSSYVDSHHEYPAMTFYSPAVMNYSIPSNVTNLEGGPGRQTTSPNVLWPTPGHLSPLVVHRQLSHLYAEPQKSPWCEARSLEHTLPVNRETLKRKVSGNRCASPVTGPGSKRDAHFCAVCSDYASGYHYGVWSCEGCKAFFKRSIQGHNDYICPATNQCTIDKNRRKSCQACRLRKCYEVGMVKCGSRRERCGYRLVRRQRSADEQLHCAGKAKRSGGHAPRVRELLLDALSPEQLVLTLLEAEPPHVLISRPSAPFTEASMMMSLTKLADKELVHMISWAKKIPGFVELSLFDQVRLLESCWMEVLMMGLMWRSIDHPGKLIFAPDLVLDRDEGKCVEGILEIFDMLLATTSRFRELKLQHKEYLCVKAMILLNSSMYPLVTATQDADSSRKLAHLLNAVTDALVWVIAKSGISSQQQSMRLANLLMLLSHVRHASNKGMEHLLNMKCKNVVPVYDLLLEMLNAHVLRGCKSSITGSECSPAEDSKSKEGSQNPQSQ
# METHOD DESCRIPTION: Binding affinity to human ERbeta assessed as relative binding affinity incubated under vibration for 1 min followed by 2 hrs incubation under dark condition by fluorescence polarization assay relative to estradiol
# STUDY CONDITIONS: time 121.0 min
READOUT: RBA
Kindly format the answer as number then unit.

Example cases with answers are listed next.
CCN(c1ccc(Cl)cc1)S(=O)(=O)C1CC2OC1C(c1ccc(NC(=O)CCCCC[Se]C#N)cc1)=C2c1ccc(O)cc1 (centres undefined) = 0.06%
COc1cccc(OS(=O)(=O)C2CC3OC2C(c2ccc(NC(=O)CCCCC[Se]C#N)cc2)=C3c2ccc(O)cc2)c1 (centres undefined) = 0.35%
CCN(c1ccc(F)cc1)S(=O)(=O)C1CC2OC1C(c1ccc(NC(=O)CCCCC[Se]C#N)cc1)=C2c1ccc(O)cc1 (centres undefined) = 0.07%

Reported RBA for N#C[Se]CCCCCC(=O)Nc1ccc(C2=C(c3ccc(O)cc3)C3CC(S(=O)(=O)N(CC(F)(F)F)c4ccccc4)C2O3)cc1 (centres undefined) was 0.03%

* * *

# ASSAY SYSTEM: Estrogen receptor (Homo sapiens)
# METHOD DESCRIPTION: Induction of ERalpha degradation in human MCF7 cells at 5 uM incubated for 24 hrs by Western blot analysis
# Type: cell-based
Active and inactive are the calls of the source. The rule behind the calls is not given here.
READOUT: Activity

O=S(=O)(Oc1ccccc1)C1CC2OC1C(c1ccc(O)cc1)=C2c1ccc(O)cc1 (centres undefined) = inactive
N#C[Se]CCCCCC(=O)Nc1ccc(C2=C(c3ccc(O)cc3)C3CC(S(=O)(=O)N(CC(F)(F)F)c4ccccc4F)C2O3)cc1 (centres undefined) = Active
CCN(c1ccccc1F)S(=O)(=O)C1CC2OC1C(c1ccc(NC(=O)CCCCC[Se]C#N)cc1)=C2c1ccc(O)cc1 (centres undefined) = Active
N#C[Se]CCCCCC(=O)Nc1ccccc1 = inactive

* * *

Reported IC50 at 72 h values are given for each entry in this list.
# METHOD DESCRIPTION: Cytotoxicity against human MCF-10A cells assessed as inhibition of cell proliferation incubated for 72 hrs by CCK8 assay
# Format: toxicity, cell-based
Respond with the bare value in µM.

Example cases with answers are listed next.
N#C[Se]CCCCCC(=O)Nc1ccc(C2=C(c3ccc(O)cc3)C3CC(S(=O)(=O)Oc4cccc(C(F)(F)F)c4)C2O3)cc1 (configuration not stated) = 53.6
N#C[Se]CCCCCC(=O)Nc1ccc(C2=C(c3ccc(O)cc3)C3CC(S(=O)(=O)N(CC(F)(F)F)c4ccccc4F)C2O3)cc1 (configuration not stated) = 15.8
N#C[Se]CCCCCC(=O)Nc1ccc(C2=C(c3ccc(O)cc3)C3CC(S(=O)(=O)Oc4ccccc4O)C2O3)cc1 (configuration not stated) = 7.49

Reported IC50 at 72 h for N#C[Se]CCCCCC(=O)Nc1ccc(C2=C(c3ccc(O)cc3)C3CC(S(=O)(=O)Oc4ccc(F)cc4)C2O3)cc1 (configuration not stated) was 11.5

Reported IC50 at 72 h for N#C[Se]CCCCCC(=O)Nc1ccc(C2=C(c3ccc(O)cc3)C3CC(S(=O)(=O)Oc4cccc(F)c4)C2O3)cc1 (configuration not stated) was 17.5

Reported IC50 at 72 h for COc1ccc(OS(=O)(=O)C2CC3OC2C(c2ccc(NC(=O)CCCCC[Se]C#N)cc2)=C3c2ccc(O)cc2)cc1 (configuration not stated) was 13.1

Reported IC50 at 72 h for N#C[Se]CCCCCCOc1ccc(OS(=O)(=O)C2CC3OC2C(c2ccc(O)cc2)=C3c2ccc(O)cc2)cc1 (configuration not stated) was 10.8
